Test: Bioavailability in Wistar rat at 2 mg/kg, iv and 5 mg/kg, po
Assay type: ADME, organism-based
Details: in vivo
measurement.kind: bioavailability (%)

Please review the following examples before continuing.
INSERT INTO assay_data (smiles_representation, measurement) VALUES
  ('COc1cc2ncnc(Nc3cccc(Cl)c3F)c2cc1OC1CCN(S(C)(=O)=O)CC1', 45),
  ('COCCN1CCC(Oc2cc3c(Nc4cccc(Cl)c4F)ncnc3cc2OC)CC1', 30);

(1) COc1cc2ncnc(Nc3cccc(Cl)c3F)c2cc1OC1CCN(CC(N)=O)CC1
(2) COc1cc2ncnc(Nc3cccc(Cl)c3F)c2cc1OC1CCN(C)CC1
Endpoint returns the identifier whose bioavailability is numerically larger, either 1 or 2 . Respond using the label that marks the chosen record.
2
